Target: MAP kinase-activated protein kinase 2 (Homo sapiens)
Sequence (P49137 whole entry): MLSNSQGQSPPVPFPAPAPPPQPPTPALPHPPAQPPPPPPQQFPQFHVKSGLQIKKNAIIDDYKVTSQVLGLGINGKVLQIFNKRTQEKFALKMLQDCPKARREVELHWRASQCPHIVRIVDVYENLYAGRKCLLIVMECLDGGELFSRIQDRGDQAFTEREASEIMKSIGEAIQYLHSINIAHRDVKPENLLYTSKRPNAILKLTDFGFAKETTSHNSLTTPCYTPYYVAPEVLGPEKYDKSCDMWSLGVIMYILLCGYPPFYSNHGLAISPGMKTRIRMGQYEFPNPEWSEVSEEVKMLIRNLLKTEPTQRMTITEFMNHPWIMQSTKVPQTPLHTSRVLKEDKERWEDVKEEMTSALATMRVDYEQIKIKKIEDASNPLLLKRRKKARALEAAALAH
Format: functional, cell-based, Monocyte
READOUT NAME: pIC50
Recall that pIC50 is obtained by taking minus log10 of the concentration measured in molar.

Incoming: Record request: pIC50 value, item `Cc1ccc(-c2ccc3c(ccc4sc5c(c43)NC[C@@H](C)NC5=O)n2)cn1`
Outgoing: 5.90
